- tested.target: HLA-DRB1*0401 (Homo sapiens (Human), UniProt P01903+P01911, A100K/A169T/DEL228-266/F76Y/I96L/K127E/L162R/M171V/N62H/P40V/Q125Y/R42H/S133A/S149N/S66Y/V115G/V209L/W38E)
- protocol.description: HLA-DR4 HTRF assay
- condition.details: inhibition of loading of Alexa Fluor 647-labeled Cit-CII peptide onto HLA-DR4 (CLIP cleaved)
measured.metric: IC50 (nM)
Enter your answer as a number in nM; do not include the unit.

Consider the following illustrative entries.
molecule | measured.metric | measurement.unit | measured.value
C[C@H]1COc2cc(O[C@H](c3ccncc3)c3ccc(C(N)=O)cc3)ccc2C1=O (single isomer, unassigned) [Example 44d] | IC50 | nM | 850
Cc1c(O[C@@H]2CCCc3cc(C(N)=O)ccc32)ccc2c1OCCC2=O (single isomer, unassigned) [Example 123a] | IC50 | nM | 630

Attention now shifts to the item below.
Consider the molecule Cc1c(O[C@H](c2ccc(Cl)cc2)c2ccc(C(N)=O)cn2)ccc2c1OCCC2=O (single isomer, unassigned) [Example 63a] . State its measured IC50. 1600

* * *

- tested.target: HLA-DRB1*0401 (Homo sapiens (Human), UniProt P01903+P01911, A100K/A169T/DEL228-266/F76Y/I96L/K127E/L162R/M171V/N62H/P40V/Q125Y/R42H/S133A/S149N/S66Y/V115G/V209L/W38E)
- protocol.description: HLA-DR4 HTRF assay
- condition.details: inhibition of loading of Alexa Fluor 647-labeled Cit-CII peptide onto HLA-DR4 (CLIP cleaved)
measured.metric: IC50 (nM)
Please give a number only; it is taken to be in nM.

Some compounds with recorded IC50:
compound | measurement.unit | IC50
CCc1cc2c(cc1O[C@@H](c1ccncc1)c1ccc(C(N)=O)cc1)OCCC2=O (single isomer, unassigned) [Example 74a] | nM | 550
COc1cc(O[C@H](c2ccncc2)c2ccc(C(N)=O)cc2)cc2c1C(=O)CCO2 (single isomer, unassigned) [Example 77b] | nM | 1500
Cc1cc2c(c(C)c1O[C@@H](c1ccncc1)c1ccc(C#N)cc1)OCCC2=O (single isomer, unassigned) [Example 88a] | nM | 400

Could you now look at the following compound, please?
Read off the recorded IC50 for Cc1c(O[C@@H]2CCc3cnccc32)ccc2c1OCCC2=O (single isomer, unassigned) [Example 124a] 570

* * *

- tested.target: HLA-DRB1*0401 (Homo sapiens (Human), UniProt P01903+P01911, A100K/A169T/DEL228-266/F76Y/I96L/K127E/L162R/M171V/N62H/P40V/Q125Y/R42H/S133A/S149N/S66Y/V115G/V209L/W38E)
- protocol.description: HLA-DR4 HTRF assay
- condition.details: inhibition of loading of Alexa Fluor 647-labeled Cit-CII peptide onto HLA-DR4 (CLIP cleaved)
# log10(IC50) per record follows
Values reflect log10 of reported IC50 (nM).

compound | log10(IC50)
NC(=O)c1ccc([C@H](Oc2cc(F)c3c(c2)OCCC3=O)c2ccncc2)cc1 (single isomer, unassigned) [Example 51b] | 3.54

Entry Cc1c(O[C@@H](c2ccc(F)cc2)c2ccc(C(N)=O)cc2)ccc2c1OCCC2=O (single isomer, unassigned) [Example 66a] needs its log10(IC50) filled in; supply it. 3.43

Fill in reported log10(IC50) for this entry: Cc1c(O[C@H](c2ccncc2)c2cccc(CNC(N)=O)c2)ccc2c1OCCC2=O (single isomer, unassigned) [Example 81b] 2.79

Identify log10(IC50) associated with the compound O=C1CCOc2cc(OC(c3ccncc3)c3ccc(F)cc3)ccc21 (racemic) 3.00
